Taken from patent US10316039B2.

Quick reference for pIC50 among some compounds
molecular target: P2X2/3 (Homo sapiens, UniProt P56373+Q9UBL9); assay: P2X2/3 FLIPR intracellular calcium assay; conditions: agonist at EC75, species (human or rat) not given
Sequence (Q9UBL9 whole entry): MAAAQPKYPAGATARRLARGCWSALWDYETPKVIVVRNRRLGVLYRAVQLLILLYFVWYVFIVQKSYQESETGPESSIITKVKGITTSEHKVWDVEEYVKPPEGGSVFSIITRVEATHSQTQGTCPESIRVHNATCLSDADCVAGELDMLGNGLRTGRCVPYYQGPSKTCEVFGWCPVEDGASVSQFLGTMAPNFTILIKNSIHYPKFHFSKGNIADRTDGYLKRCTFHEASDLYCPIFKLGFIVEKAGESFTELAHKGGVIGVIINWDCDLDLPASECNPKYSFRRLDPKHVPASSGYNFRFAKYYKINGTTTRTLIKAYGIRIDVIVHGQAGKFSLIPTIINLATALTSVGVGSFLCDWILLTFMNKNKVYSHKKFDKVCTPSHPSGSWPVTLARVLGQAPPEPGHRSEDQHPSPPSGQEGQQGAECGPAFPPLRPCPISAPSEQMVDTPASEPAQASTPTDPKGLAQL
Sequence (P56373 whole entry): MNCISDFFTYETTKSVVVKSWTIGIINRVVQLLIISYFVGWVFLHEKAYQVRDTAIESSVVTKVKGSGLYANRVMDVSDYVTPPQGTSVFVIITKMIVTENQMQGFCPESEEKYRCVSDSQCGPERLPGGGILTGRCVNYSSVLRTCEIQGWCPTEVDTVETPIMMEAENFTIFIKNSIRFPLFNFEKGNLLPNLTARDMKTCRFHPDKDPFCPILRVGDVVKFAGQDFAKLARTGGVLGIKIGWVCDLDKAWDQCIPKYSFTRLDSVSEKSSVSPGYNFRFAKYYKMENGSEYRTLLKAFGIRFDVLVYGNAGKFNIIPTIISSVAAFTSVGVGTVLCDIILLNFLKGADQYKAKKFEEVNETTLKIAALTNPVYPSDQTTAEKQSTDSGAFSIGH
pIC50: −log10 of the molar value.
metricName: pIC50

• C[C@H](NC(=O)c1cc(-n2nncc2C(F)F)c2ncc(-c3ccc(C(F)(F)F)s3)n2c1)c1nnc[nH]1 [Example 59] = 5.00 to 6.00
• CCc1cnnn1-c1cc(C(=O)N[C@@H](C)c2nnc[nH]2)cn2c(-c3ccc(C)o3)cnc12 [Example 62] = 6.00 to 7.00
• Cc1cnc(CNC(=O)c2cc(-n3nncc3C(F)F)c3ncc(-c4ccc(C)s4)n3c2)cn1 [Example 32] = 7.00 to 9.00
• Cc1cnc(-c2cnc3c(-c4c(C)noc4C)cc(C(=O)N[C@@H](C)c4nnc[nH]4)cn23)s1 [Example 109] = 6.00 to 7.00
• CCc1nnc(-c2cc(C(=O)NCc3ccc(C)nc3)cn3c(-c4ccc(C)s4)cnc23)o1 [Example 21] = 6.00 to 7.00
• Cc1ccc(-c2cnc3c(-c4c(C)noc4C)cc(C(=O)N[C@@H](C)c4nnc[nH]4)cn23)s1 [Example 102] = 7.00 to 9.00
• Cc1cnc(-c2cnc3c(-n4nncc4C(F)F)cc(C(=O)N[C@@H](C)c4nnc[nH]4)cn23)s1 [Example 53] = 7.00 to 9.00
• Cc1ccc(-c2cnc3c(N4CCC(F)(F)CC4)cc(C(=O)N[C@@H](C)c4nnc[nH]4)cn23)s1 [Example 130] = 7.00 to 9.00
• COC1CCCN(c2cc(C(=O)N[C@@H](C)c3nnc[nH]3)cn3c(-c4ccc(C)s4)cnc23)C1 (some centres unmarked) [Example 141] = 6.00 to 7.00
• Cc1cnc(-c2cnc3c(-n4nncc4C(C)(C)C)cc(C(=O)N[C@@H](C)c4nnc[nH]4)cn23)s1 [Example 57] = 6.00 to 7.00
• CCc1nnnn1-c1cc(C(=O)N[C@@H](C)c2nnc[nH]2)cn2c(-c3ccc(C)s3)cnc12 [Example 178] = 6.00 to 7.00
• Cc1ccc(-c2cnc3c(-n4nncc4C(F)F)cc(C(=O)N[C@@H](C)c4nnco4)cn23)s1 [Example 14] = 6.00 to 7.00
• Cc1ncc(CNC(=O)c2cc(-n3nnnc3C(F)F)c3ncc(-c4ccc(C)s4)n3c2)cn1 [Example 177] = 7.00 to 9.00
• Cc1noc([C@@H](C)NC(=O)c2cc(-n3nncc3C(F)F)c3ncc(-c4ccc(C)s4)n3c2)n1 [Example 85] = 7.00 to 9.00
• Cc1ccc(CNC(=O)c2cc(-n3nnnc3C3CC3)c3ncc(-c4ccc(C)s4)n3c2)cn1 [Example 16] = 6.00 to 7.00
• Cc1ccc(CNC(=O)c2cc(-n3nnnc3C(F)F)c3ncc(-c4ccc(C)s4)n3c2)cn1 [Example 18] = 7.00 to 9.00
• CCCc1cnnn1-c1cc(C(=O)N[C@@H](C)c2nnc[nH]2)cn2c(-c3ccc(C)s3)cnc12 [Example 63] = 7.00 to 9.00
• Cc1ccc(-c2cnc3c(Nc4nccs4)cc(C(=O)NCc4ccn(C)c(=O)c4)cn23)s1 [Example 93] = 5.00 to 6.00
• Cc1ccc(-c2cnc3c(N4CCC(C)CC4)cc(C(=O)N[C@@H](C)c4nnc[nH]4)cn23)s1 [Example 11] = 6.00 to 7.00
• Cc1ccc(-c2cnc3c(-n4nnnc4C4CCC4)cc(C(=O)NC(C)c4cnccn4)cn23)s1 (centres unmarked) [Example 160] = 6.00 to 7.00
